Just for reference, ChEMBL document CHEMBL4665642 is where these values come from.

system: MDA-MB-435; assay: Cytotoxicity against human MDA-MB-435 cells assessed as cell viability at 10 uM incubated for 48 hrs by sulforhodamine B assay relative to control; format: functional; conditions: read-out: Activity
Readout label: viability at 10 µM (%)
Answers are plain numbers, in %.

Dear colleague, could you please provide viability at 10 µM for the molecules listed below?
1. O=S(=O)(NCCCNc1nccc(-c2c(-c3cccc(F)c3)nc3sccn23)n1)c1cccc2ccccc12
2. O=S(=O)(NCCNc1nccc(-c2c(-c3cccc(F)c3)nc3sccn23)n1)c1ccccc1
3. O=C(NCCCNc1nccc(-c2c(-c3cccc(F)c3)nc3sccn23)n1)C1CCCCC1
4. O=S(=O)(NCCCNc1nccc(-c2c(-c3cccc(F)c3)nc3sccn23)n1)c1ccc(F)cc1

Out:
1: 22.6; 2: 17.4; 3: 50.5; 4: 50.4

Dear colleague, could you please provide viability at 10 µM for the molecules listed below?
1. O=S(=O)(NCCNc1nccc(-c2c(-c3cccc(F)c3)nc3sccn23)n1)c1ccc(C(F)(F)F)cc1
2. O=C(NCCNc1nccc(-c2c(-c3cccc(F)c3)nc3sccn23)n1)c1ccc(Cl)cc1
3. O=S(=O)(NCCNc1nccc(-c2c(-c3cccc(F)c3)nc3sccn23)n1)c1cccc2ccccc12

Out:
[71.2, 32, 87.7]

Dear colleague, could you please provide viability at 10 µM for the molecules listed below?
1. O=C(NCCCNc1nccc(-c2c(-c3cccc(F)c3)nc3sccn23)n1)c1ccc(C(F)(F)F)cc1
2. O=C(NCCNc1nccc(-c2c(-c3cccc(F)c3)nc3sccn23)n1)c1c(F)cccc1F

Out:
1. 68.7
2. 17.4

Dear colleague, could you please provide viability at 10 µM for the molecules listed below?
1. Cc1ccc(S(=O)(=O)NCCCNc2nccc(-c3c(-c4cccc(F)c4)nc4sccn34)n2)cc1
2. O=S(=O)(NCCNc1nccc(-c2c(-c3cccc(F)c3)nc3sccn23)n1)c1ccc(Br)cc1
3. O=S(=O)(NCCNc1nccc(-c2c(-c3cccc(F)c3)nc3sccn23)n1)c1ccc(Cl)cc1
4. O=S(=O)(NCCNc1nccc(-c2c(-c3cccc(F)c3)nc3sccn23)n1)c1cccc(F)c1
5. O=C(NCCNc1nccc(-c2c(-c3cccc(F)c3)nc3sccn23)n1)c1ccccc1
6. O=C(NCCNc1nccc(-c2c(-c3cccc(F)c3)nc3sccn23)n1)c1ccc(C(F)(F)F)cc1

Out:
[48.8, 21.3, 26.3, 41.9, 27, 47.7]

Dear colleague, could you please provide viability at 10 µM for the molecules listed below?
1. O=S(=O)(NCCNc1nccc(-c2c(-c3cccc(F)c3)nc3sccn23)n1)c1ccc(F)cc1
2. O=S(=O)(NCCCNc1nccc(-c2c(-c3cccc(F)c3)nc3sccn23)n1)c1cccc(F)c1
3. O=S(=O)(NCCCNc1nccc(-c2c(-c3cccc(F)c3)nc3sccn23)n1)c1ccc(O)cc1
4. O=C(NCCCNc1nccc(-c2c(-c3cccc(F)c3)nc3sccn23)n1)c1ccc(F)cc1
5. O=S(=O)(NCCCNc1nccc(-c2c(-c3cccc(F)c3)nc3sccn23)n1)c1ccc(Cl)cc1
6. O=C(NCCNc1nccc(-c2c(-c3cccc(F)c3)nc3sccn23)n1)C1CCCCC1
7. O=S(=O)(NCCCNc1nccc(-c2c(-c3cccc(F)c3)nc3sccn23)n1)c1ccccc1
8. O=S(=O)(NCCCNc1nccc(-c2c(-c3cccc(F)c3)nc3sccn23)n1)c1ccc(Br)cc1

Out:
1: 31.5; 2: 24; 3: 33.4; 4: 72.6; 5: 53.1; 6: 65.5; 7: 41.7; 8: 31.6

In: Report viability at 10 µM for O=S(=O)(NCCCNc1nccc(-c2c(-c3cccc(F)c3)nc3sccn23)n1)c1ccc(C(F)(F)F)cc1 tested on MDA-MB-435.
Out: 74.2
